# EXPERIMENTAL_TARGET: T1, human calcitonin receptor (human, UniProt P30988 25-474)
# T1 construct: whole, on cells; also called hCTR; hCT
# T1 sequence (looked up): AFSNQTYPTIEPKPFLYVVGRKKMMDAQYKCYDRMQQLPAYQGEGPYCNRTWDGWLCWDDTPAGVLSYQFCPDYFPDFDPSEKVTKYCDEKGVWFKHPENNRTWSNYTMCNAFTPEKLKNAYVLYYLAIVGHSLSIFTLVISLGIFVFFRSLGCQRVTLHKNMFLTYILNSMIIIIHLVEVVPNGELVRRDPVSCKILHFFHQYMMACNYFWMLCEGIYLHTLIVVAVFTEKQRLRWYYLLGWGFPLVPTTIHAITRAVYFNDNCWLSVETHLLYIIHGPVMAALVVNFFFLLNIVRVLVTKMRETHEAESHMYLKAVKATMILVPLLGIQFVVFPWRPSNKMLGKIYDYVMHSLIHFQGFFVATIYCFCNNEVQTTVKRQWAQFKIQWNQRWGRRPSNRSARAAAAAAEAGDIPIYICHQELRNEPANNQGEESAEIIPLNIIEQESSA
# ASSAY_OVERVIEW: SPA radioligand competition (125I-calcitonin), membranes of BHK cells with human calcitonin receptor
Numbered stars: 1 amine (or outer) side, 2 acyl side, 3 side chain; on linkers, the order of the positions; unused ones are H or OH. Bridge positions count the residues as written; N and C are the ends. Side chains are listed from the residue outwards. Ends that are not written are not given here. * marks the point of attachment. C20 diacid = O=C(O)CCCCCCCCCCCCCCCCCCC(=O)*; γGlu = O=C(O)[C@H](CCC(=O)[*:2])N[*:1]
REPORTED_PROPERTY: IC50 (nM)

BINDER	REPORTED_PROPERTY	NUMERIC_VALUE
{C20 diacid-γGlu}-GRCNTATCATQRLAAFLRHSSPNFGAIPSSTNVGPNTY-NH2 (disulfide 3-8)	IC50	3

[1] K([γGlu-C20 diacid])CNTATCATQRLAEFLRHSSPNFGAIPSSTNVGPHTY-NH2 (disulfide 2-7)
[2] K([γGlu-γGlu-C20 diacid])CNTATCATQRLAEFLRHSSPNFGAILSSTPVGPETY-NH2 (disulfide 2-7)
# returns the entry with the larger IC50; inputs 1 and 2 Mark your selection by writing its label. 1
